- assayed target: follicle-stimulating hormone (FSH) receptor (Rattus norvegicus, UniProt P20395)
- Construct: endogenous in cells
- Sequence (P20395 18-692): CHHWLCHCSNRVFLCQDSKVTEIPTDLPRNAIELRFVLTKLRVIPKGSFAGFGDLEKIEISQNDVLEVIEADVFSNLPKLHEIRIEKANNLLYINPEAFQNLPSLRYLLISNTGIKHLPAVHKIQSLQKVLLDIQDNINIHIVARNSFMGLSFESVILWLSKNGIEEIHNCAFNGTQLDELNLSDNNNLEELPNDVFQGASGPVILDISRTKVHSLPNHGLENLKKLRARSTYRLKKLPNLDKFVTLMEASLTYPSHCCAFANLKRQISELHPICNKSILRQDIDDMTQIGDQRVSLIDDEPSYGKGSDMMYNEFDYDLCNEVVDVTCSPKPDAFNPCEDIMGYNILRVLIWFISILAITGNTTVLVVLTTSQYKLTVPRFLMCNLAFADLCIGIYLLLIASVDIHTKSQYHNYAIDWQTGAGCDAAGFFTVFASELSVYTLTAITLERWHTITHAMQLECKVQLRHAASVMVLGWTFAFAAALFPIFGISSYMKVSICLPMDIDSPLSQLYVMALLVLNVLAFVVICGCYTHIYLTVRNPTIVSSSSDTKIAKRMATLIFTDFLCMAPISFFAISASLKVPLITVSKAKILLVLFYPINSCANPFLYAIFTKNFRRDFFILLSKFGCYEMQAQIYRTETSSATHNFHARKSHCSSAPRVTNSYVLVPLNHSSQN
- measurement notes: Rat granulosa EC50 FSH (Assay B)
- test parameters: rat granulosa cells, per Yanofsky et al. 2006
# EC50 per record follows

line notation: COc1ccc(C2=NN(C(=O)[C@H](OC)c3ccccc3)CC2)cc1OC
assayed target: follicle-stimulating hormone (FSH) receptor (Rattus norvegicus, UniProt P20395)
EC50 (nM): 5400

line notation: COc1ccc(C2=NN(C(=O)c3cccc(Cl)c3)CC2)cc1OC
assayed target: follicle-stimulating hormone (FSH) receptor (Rattus norvegicus, UniProt P20395)
EC50 (nM): 98.1

line notation: COc1ccc(C2=NN(C(=O)c3cccc(F)c3)C(C)(C)C2)cc1OC
assayed target: follicle-stimulating hormone (FSH) receptor (Rattus norvegicus, UniProt P20395)
EC50 (nM): 363

line notation: COc1ccc(C2=NN(C(=O)c3cccc(C#N)c3)C(C)(C)C2)cc1OC
assayed target: follicle-stimulating hormone (FSH) receptor (Rattus norvegicus, UniProt P20395)
EC50 (nM): 25

line notation: COc1ccc(C2=NN(C(=O)c3ccc(Oc4ccccc4)cc3)C(C)(C)C2)cc1OC
assayed target: follicle-stimulating hormone (FSH) receptor (Rattus norvegicus, UniProt P20395)
EC50 (nM): 128

line notation: COc1ccc(C2=NN(C(=O)c3cccc(C(F)(F)F)c3)CC2)cc1OC
assayed target: follicle-stimulating hormone (FSH) receptor (Rattus norvegicus, UniProt P20395)
EC50 (nM): 348

line notation: COc1ccc(C2=NN(C(=O)c3cccc(F)c3)CC2)cc1OC
assayed target: follicle-stimulating hormone (FSH) receptor (Rattus norvegicus, UniProt P20395)
EC50 (nM): 878

line notation: COc1ccc(C2=NN(C(=O)c3cccc(OC(F)(F)F)c3)C(C)(C)C2)cc1OC
assayed target: follicle-stimulating hormone (FSH) receptor (Rattus norvegicus, UniProt P20395)
EC50 (nM): 1150

line notation: COc1ccc(C2=NN(C(=O)c3cccc(C(F)(F)F)c3)C(C)(C)C2)cc1OC
assayed target: follicle-stimulating hormone (FSH) receptor (Rattus norvegicus, UniProt P20395)
EC50 (nM): 699
